The values you see were collected from PubChem BioAssay.

tested on: TRPC4 (transient receptor potential cation channel C4 beta), mouse; assay: potentiation of DAMGO EC20 TRPC4 response – cell-based, second round, Fluo-4, HEK293 TRPC4beta/mu-opioid, 1 µM, confirmation (AID 2554); settings: DAMGO EC20, Fluo-4 calcium flux, at 1 µM; stronger effect = higher value
The source made the active and inactive calls.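 How the source made its calls: active means primary screen hit whose fluorescence ratio, in both repeats, exceeds the weak agonist control mean by 3 SD; inactive means the rest.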
readout: potentiation

>>> df
                            chemical_smiles       readout  observed_measurement
0  O=C(O)CCCN1C(=O)/C(=C\c2ccc(-c3nc4ccccc4s3)o2)SC1=S  potentiation              inactive
1            CC(C)c1nc2ccc(Br)cn2c1NC1CCCC1  potentiation              inactive
2          CCCCNC(=O)/C(C#N)=C/c1ccc(F)cc1F  potentiation              inactive

----------
assay: parental HEK293 cell activity, no Kir2.1 – FluxOR thallium flux, duplicate, single concentration, counter-screen for Kir2.1 inhibitor project, confirmation (AID 2105); conditions: parental HEK293 cells, FluxOR thallium flux fluorescence, at 10 µM; 0% = unstimulated blank wells
Some of the results follow. Activity calls are given as the source filed them.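 How the source made its calls: active means dye signal at least 3 control SD above or below untreated wells in both duplicates, raw fluorescence within 3, either direction; inactive means the rest.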
Classes used: Y (active), N (inactive)

                                   compound  class
0  COc1ccc(CN2CCC(c3nc4ccc(Cl)cc4[nH]3)CC2)cc1      N
1   Cc1cc(C)c(C)c(S(=O)(=O)Nc2ccc(O)cc2)c1C      N
2   CCc1ccc(-c2nn(-c3ccccc3)cc2CSC(=N)N)cc1      N
3  N#Cc1c(-c2ccccc2)nc(SCc2cccc(C(F)(F)F)c2)[nH]c1=O      Y
4  CSc1nnc(NC(=O)c2nc(S(=O)(=O)Cc3ccc(C)cc3)ncc2Cl)s1      N
5  CC(NC(=O)Nc1cccc([N+](=O)[O-])c1)c1ccc2c(c1)OCO2 (configuration not stated)      N
6  CCC(=O)OCc1c(C(F)(F)F)nn(C)c1Oc1cccc(C(F)(F)F)c1      N

----------
target: Short transient receptor potential channel 4 (Mus musculus); experiment: blockers of DAMGO-evoked TRPC4 calcium flux – cell-based, Fluo4, HEK293 TRPC4beta/mu-opioid, confirmation (AID 2636); conditions: at 10 µM
Activity calls are given as the source filed them.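 The calls were made as follows: active = calcium signal cut by more than 3 SD below the full-agonist control yet still positive, in both repeats and the earlier primary screen; inactive = the rest.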
Classes used: t (active), f (inactive)

>>> df
                            chemical_smiles  class
0  CCOC(=O)C(CCCCCOc1ccc([N+](=O)[O-])cc1)C(=O)OCC      f
1  Nc1cc(=O)nc(SCC(=O)N2CCN(c3ccccc3)CC2)n1-c1ccc(F)cc1      t
2  CCOc1ccccc1-n1c(SCC(=O)Nc2nccs2)nnc1-c1ccoc1C      t

----------
system: TRPC4 (transient receptor potential cation channel C4 beta), mouse; assay: potentiation of DAMGO EC20 TRPC4 response – cell-based, second round, Fluo-4, HEK293 TRPC4beta/mu-opioid, 1 µM, confirmation (AID 2554); conditions: DAMGO EC20, Fluo-4 calcium flux, at 1 µM
The source made the active and inactive calls.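 The calls were made as follows: active = primary screen hit whose fluorescence ratio, in both repeats, exceeds the weak agonist control mean by 3 SD; inactive = the rest.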
Classes used: t = active, f = inactive

                                    compound  class
 0  O=C(Cc1cccc(F)c1F)NC1CCCN(Cc2ccc(Cl)cc2)C1 (configuration not stated)      f
 1      O=C1Cc2ccccc2Sc2c(OCCN3CCCCC3)cccc21      f
 2    NCCNC(=O)c1c(NC(=O)c2ccccc2)sc2c1CCCC2      f
 3                  Cc1ccc(NC(=O)c2cccs2)cc1      f
 4  Cc1nn(-c2ccccc2)c2nc(-c3ccccc3)cc(C(=O)N3CCOCC3)c12      f
 5            CCOc1ccc(N=CNc2ccc(OCC)cc2)cc1      t
 6         N=c1c2c(n(Cc3ccccc3)c3c1CCC3)CCC2      f
 7  Cc1nc2ccccc2n1CC(O)COc1ccccc1Cl (configuration not stated)      f
 8  CCOC(=O)C1NN=C(C(=O)c2ccccc2)C1c1ccc(Cl)cc1 (configuration not stated)      f
 9          Fc1ccc(CN2C3=NCCCN3c3ccccc32)cc1      f
10  Cc1ccc(-c2cc(C(=O)NCCCN3CCCC3)c3ccccc3n2)cc1C      f
11  Cc1ccc(S(=O)(=O)Nc2ccc(N=Nc3ccc(O)cc3)cc2)cc1      f
12  CC(C)C(=O)Nc1ccc(C(=O)Nc2nnc(C(C)(C)C)s2)cc1      f
13  CCCCc1nc2ccccc2c(N)c1CCC (tested in a mixture with another compound)      f
14  CC(=O)c1nn(-c2cccc(Br)c2)cc1C(=O)c1cccc2ccccc12      f
15  COc1cccc(N(C(=O)c2snc(C(N)=O)c2N)C(C(=O)NCC2CCCO2)c2ccc3ncccc3c2)c1 (configuration not stated)      f
16  COc1ccc(NS(=O)(=O)c2cccc(C(=O)N3CCN(Cc4cc(OC)ccc4OC)CC3)c2)cc1      f
17  CCc1c(C)nc2c(-c3ccccc3)c(C)nn2c1Nc1ccc(NC(C)=O)cc1      f
18    N=c1c2c(n(Cc3ccc(Br)cc3)c3c1CCC3)CCCC2      f
19  COc1ccccc1N(C(=O)c1snc(C(N)=O)c1N)C(C(=O)NC1CCCC1)c1ccc2ncccc2c1 (configuration not stated)      f
20  Cc1ccn2c(CNCCCn3cccn3)c(C(=O)N3CCCCCC3)nc2c1      f
21           CC(=O)c1ccc2c(c1)N(C)c1ccccc1S2      f
22        COc1ccc2nc(C)cc(NCc3ccc(F)cc3)c2c1      f
23         O=C(COc1ccccc1-c1ccccc1)NCc1ccco1      f
24         CN(C)CCCSc1nc(-c2ccccc2)nc2c1CCC2      t
25        COc1ccc(N=C2SCC(=O)N2Cc2ccccc2)cc1      f
26  NS(=O)(=O)c1ccc(CCNCc2ccccc2OCc2ccc(F)cc2)cc1      f
27    COc1ccc(OC)c(Nc2c3c(nc4ccccc24)CCC3)c1      f
28  O=C(c1sc2ccccc2c1Cl)N(Cc1ccccc1)C1CCS(=O)(=O)C1 (configuration not stated)      f
29  COc1ccc(C(CNC(=O)C(Cc2ccccc2)NC(N)=O)N(C)C)cc1 (configuration not stated)      f
30  CC(=O)Nc1ccc(S(=O)(=O)NC2=C(N3CCN(Cc4ccccc4)CC3)C(=O)c3ccccc3C2=O)cc1      f
31  OCC(Cc1ccccc1)NCc1ccccc1C(F)(F)F (configuration not stated)      f
32  COc1cc(/C=C2\C(=O)ON=C2c2ccccc2)cc(Cl)c1O      f
33    C1CCN(c2nc(N3CCCCC3)nc(N3CCNCC3)n2)CC1      f
34  COc1ccc(CN2CCN(Cc3ccc(C(F)(F)F)cc3)CC2)c(OC)c1      f
35  CCCN(CCC)CCCNC(=O)c1cc2c(=O)n(C)c3ccccc3c2n1C      t
36  CCc1ccc(/C=C2/SC(=S)N(CCCC(=O)Nc3ccccc3C(=O)O)C2=O)cc1      f
